Form field: IC50 (one value per entry).
subjectOfTest: Recombinant human BACE1 (Homo sapiens)
Construct: purchased R&D Systems
Sequence (P56817 46-501): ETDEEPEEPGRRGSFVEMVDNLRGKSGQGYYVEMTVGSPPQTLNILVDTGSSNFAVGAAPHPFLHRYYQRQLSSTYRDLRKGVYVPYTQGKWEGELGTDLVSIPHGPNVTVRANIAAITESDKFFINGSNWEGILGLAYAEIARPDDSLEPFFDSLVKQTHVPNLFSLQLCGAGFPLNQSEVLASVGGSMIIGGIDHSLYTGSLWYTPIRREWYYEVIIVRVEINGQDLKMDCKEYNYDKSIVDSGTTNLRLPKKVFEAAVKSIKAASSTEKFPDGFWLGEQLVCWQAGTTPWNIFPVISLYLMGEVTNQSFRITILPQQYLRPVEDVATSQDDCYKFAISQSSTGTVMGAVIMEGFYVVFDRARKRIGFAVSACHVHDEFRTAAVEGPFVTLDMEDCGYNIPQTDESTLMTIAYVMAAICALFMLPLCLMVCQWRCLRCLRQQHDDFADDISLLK
protocolDescription: Assay of BACE1 inhibiting activity
Assay type: biochemical
appliedConditions: 50% inhibitory concentration against enzymatic activity, pH 5.0, 30° C., 3 hours
readout: IC50

compound="CO/C(N)=N\\C(c1ccc(OC)cc1)c1cccc(NC(=O)c2cnc(OC)cn2)c1 (centres unmarked) [Compound 58]" readout=IC50 result="≤ 1000 nM"
compound="CO/C(N)=N\\c1cccc2ccc(NC(=O)c3ccc(C#N)cn3)cc12 [Compound 75]" readout=IC50 result="≤ 1000 nM"
compound="[2H]C([2H])([2H])Oc1cnc(C(=O)Nc2cccc(C3(/N=C(/N)OC)CC3)c2)cn1 [Compound 97]" readout=IC50 result="≤ 1000 nM"
compound="CC#CCOc1cnc(C(=O)Nc2cccc(C/N=C(/N)SC)c2)cn1 [Compound 3]" readout=IC50 result="130 nM"
compound="CC#CCOc1cnc(C(=O)Nc2cccc(C/N=C(/N)SCCc3ccccc3)c2)cn1 [Compound 6]" readout=IC50 result="≤ 1000 nM"
compound="CO/C(N)=N/C(C)(c1ccc(OC)cc1)c1cccc(NC(=O)c2ccc(C#N)cn2)c1 (centres unmarked) [Compound 98]" readout=IC50 result="≤ 1000 nM"
compound="CC#CCOc1cnc(C(=O)Nc2cccc(C/N=C(/N)SCC)c2)cn1 [Compound 7]" readout=IC50 result="1210 nM"
compound="CC#CCOc1cnc(C(=O)Nc2cccc(C/N=C(/N)SCc3cccnc3)c2)cn1 [Compound 10]" readout=IC50 result="≤ 1000 nM"

----------
System: Neuroblastoma SH-SY5Y cells (SH/APPwt) with human wild-type β-APP excessively expressed
protocolDescription: Measurement of β-amyloid (Aβ) production inhibitory effect in cell
Type: cell-based
appliedConditions: amount needed to inhibit Aβ production by 50%, 24 hours incubation, Amyloid β1-40 HTRF
Protocol: Neuroblastoma SH-SY5Y cells (SH/APPwt) with human wild-type β-APP excessively expressed therein were prepared at 8×10^5 cells/mL, and 150 μl portions thereof were inoculated into each well of a 96-well culture plate (Falcon). The cells were cultured for 2 hours at 37° C. in a 5% gaseous carbon dioxide incubator. […] The amount of the Aβ in each fraction was measured. The […] was measured as follows. […]
pIC50: −log10 of the molar value.
readout: pIC50

molecule="CO/C(N)=N/C(C)(c1ccc(F)cc1)c1cccc(NC(=O)c2ccc(C#N)cn2)c1 (stereo not shown)" measurednumber=7.62

----------
subjectOfTest: Recombinant human BACE1 (Homo sapiens)
protocolDescription: Assay of BACE1 inhibiting activity
appliedConditions: 50% inhibitory concentration against enzymatic activity, pH 5.0, 30° C., 3 hours
pIC50: −log10 of the molar value.
Form field: pIC50 (one value per entry).
readout: pIC50

compound="CC#CCOc1cnc(C(=O)Nc2cccc(C/N=C(/N)SCCCC)c2)cn1 [Compound 9]" result="≥ 6.00"
compound="COC(=N)NC(c1ccc(OC(C)C)cc1)c1cccc(NC(=O)c2ccc(C#N)cn2)c1 (centres unmarked) [Compound 95]" result="≥ 6.00"
compound="CO/C(N)=N\\C(c1cccc(NC(=O)c2ccc(C#N)cn2)c1)c1ccc2c(c1)CCO2 (centres unmarked) [Compound 54]" result="≥ 6.00"
compound="CO/C(N)=N/C(C)(c1ccc(F)cc1)c1cccc(NC(=O)c2ccc(C#N)cn2)c1 (centres unmarked) [Compound 88]" result="≥ 6.00"
compound="CO/C(N)=N\\C(c1cccc(NC(=O)c2ccc(C#N)cn2)c1)c1ccc(OC)c(F)c1 (centres unmarked) [Compound 55]" result="≥ 6.00"
compound="CO/C(N)=N\\[C@H](c1ccc(F)cc1)c1cccc(NC(=O)c2ccc(C#N)cn2)c1 [Compound 52]" result="≥ 6.00"
compound="CO/C(N)=N\\c1c(C)ccc2ccc(NC(=O)c3ccc(C#N)cn3)cc12 [Compound 77]" result="≥ 6.00"
compound="CS/C(N)=N\\c1cccc2ccc(NC(=O)c3ccc(C#N)cn3)cc12 [Compound 28]" result=6.10
